Recorded measurements of EC50, one per entry
Biological target: ERα (Homo sapiens, UniProt P03372)
Sequence (P03372 1-595): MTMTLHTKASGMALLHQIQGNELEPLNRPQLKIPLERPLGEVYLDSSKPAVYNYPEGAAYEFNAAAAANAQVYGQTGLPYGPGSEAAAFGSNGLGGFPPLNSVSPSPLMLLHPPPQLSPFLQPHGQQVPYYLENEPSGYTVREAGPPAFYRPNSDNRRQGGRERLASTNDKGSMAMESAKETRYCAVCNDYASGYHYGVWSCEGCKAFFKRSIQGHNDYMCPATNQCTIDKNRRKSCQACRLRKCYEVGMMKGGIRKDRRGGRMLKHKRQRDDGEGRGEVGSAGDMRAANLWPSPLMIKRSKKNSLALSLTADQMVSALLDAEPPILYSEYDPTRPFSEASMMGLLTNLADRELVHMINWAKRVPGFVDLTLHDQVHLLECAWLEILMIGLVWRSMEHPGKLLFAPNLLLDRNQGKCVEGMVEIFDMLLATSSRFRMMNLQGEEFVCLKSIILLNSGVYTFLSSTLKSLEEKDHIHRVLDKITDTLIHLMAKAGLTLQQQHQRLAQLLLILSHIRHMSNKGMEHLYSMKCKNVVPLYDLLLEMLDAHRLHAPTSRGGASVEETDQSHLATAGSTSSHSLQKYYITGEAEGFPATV
Assay: Luciferase reporter gene assay (3*ERE) in HEK293 cells, ERα
Type: cell-based
Parameters: expressed in transfected cells; host or cells: transient transfection
Details: 48 hours, na = not active, read-out: Luciferase Erα pEC50 (converted)
test_readout: EC50 (nM)

compound_smiles: Oc1ccc(C2(c3ccccc3)CCCCC2)cc1
tested_on: ERα (Homo sapiens, UniProt P03372)
test_readout: EC50
units_of_measure: nM
recorded_measurement: 15800
--
compound_smiles: Oc1ccc(C2(c3ccccc3F)CCCCC2)cc1
tested_on: ERα (Homo sapiens, UniProt P03372)
test_readout: EC50
units_of_measure: nM
recorded_measurement: 3980
--
compound_smiles: Oc1ccc(C2(c3ccccc3Cl)CCCCC2)cc1
tested_on: ERα (Homo sapiens, UniProt P03372)
test_readout: EC50
units_of_measure: nM
recorded_measurement: 1580
--
compound_smiles: Oc1ccc(C2(c3ccccc3F)CCC(F)(F)CC2)cc1
tested_on: ERα (Homo sapiens, UniProt P03372)
test_readout: EC50
units_of_measure: nM
recorded_measurement: 631
--
compound_smiles: Oc1ccc(C2(c3cccc(F)c3Cl)CCCCC2)cc1
tested_on: ERα (Homo sapiens, UniProt P03372)
test_readout: EC50
units_of_measure: nM
recorded_measurement: 398

Reference source for all entries: patent US9061981B2
